Where these numbers come from: ChEMBL document CHEMBL3988442

- Tested on: Wolbachia pipientis
- run-description: Anti-Wolbachia Cell-Based Screen
- Type: functional
- Set-up: scale not given: in the data most compounds retested in dose-response had high values
- run-conditions: 5 µM
Screen size: about 48,000 compounds; about 13,000 (27%) showed an effect of 50% or more. The list shows a part of the results.
Hi there, I'd appreciate the recorded Percent Effect for every entry that follows.
Numbers only, in %.

* COC(=O)c1cccc(C(=O)N2CCN(c3ccc(Cl)cc3)CC2)n1 | 100.8

Value sought for every listed compound: Percent Effect.
1. O=C(CO[C@@H]1CC[C@H]2[C@H]1OCCN2CC1CCOCC1)N1CCCC1.O=C(O)C(F)(F)F
2. Cc1cnc(-c2nc(C3CCN(Cc4ccccc4C)CC3)no2)cn1
3. O=C(O)C(F)(F)F.O=C(O)C(F)(F)F.c1cnn(CCCO[C@@H]2CC[C@H]3[C@H]2OCCN3CC2CC2)c1
4. CCO[C@@H]1CC[C@H]2[C@H]1OCCN2CCOCc1ccccc1.O=C(O)C(F)(F)F
5. CN(C)C(=O)[C@H]1C[C@@H]2CN(c3ncccn3)C[C@H]1O2
6. CNC(=O)[C@@H]1C[C@@H](NC(=O)c2cn(C)nc2C)CN1Cc1sccc1C
7. Cc1nnc(N2C[C@H](OCCCn3cccn3)[C@H]3OCCC[C@H]32)s1

Given back:
[-8.196, 126.9, 100.5, -21.46, 10.85, 22.01, 1.098]

====

Hi there, I'd appreciate the recorded Percent Effect for every entry that follows.
- System: Wolbachia pipientis
- run-description: Anti-Wolbachia Cell-Based Screen
- Format: functional
- Set-up: scale not given: in the data most compounds retested in dose-response had high values
- run-conditions: 5 µM
In all, about 48,000 compounds went through this assay and about 13,000 (27%) showed an effect of 50% or more. This is one part of the list.
Give bare numbers, in %.

Value sought for every listed compound: Percent Effect.
1. COc1ccccc1N1CCCC(NC(=O)Nc2cccnc2)C1 (stereo unspecified)
2. O=C(NC1CCCN(c2ccc(OC(F)F)cc2)C1)c1c[nH]nn1 (stereo unspecified)

Given back:
1. -7.582
2. -1.773

Value sought for every listed compound: Percent Effect.
1. COCCN1CCN(Cc2c(C)noc2C)Cc2cccnc21.O=C(O)C(F)(F)F.O=C(O)C(F)(F)F
2. O=C(O)[C@@H]1CN(C(=O)c2cc(C3CC3)n[nH]2)C[C@H]1c1cccc(F)c1
3. O=C(O)[C@@H]1CN(C(=O)c2ccc3nccnc3c2)C[C@H]1c1ccncc1
4. OCCN1CCC(CNCCOCC(F)(F)F)CC1
5. c1cncc(CN2CCC(c3ccnc4nccn34)C2)c1 (stereo unspecified)
6. N#CC1(NC(=O)COc2cc(Cl)cc(Cl)c2)CCOCC1
7. COc1cccc(-c2cc(NCc3nccn3C)n(C)n2)c1

Given back:
1. -0.8432
2. -7.697
3. -8.549
4. 0.8425
5. 122.6
6. -7.839
7. -16.42

====

- Tested on: Wolbachia pipientis
- run-description: Anti-Wolbachia Cell-Based Screen
- Format: functional
- Parameters: scale not given: in the data most compounds retested in dose-response had high values
- run-conditions: 5 µM
Out of some 48,000 compounds screened, about 13,000 (27%) showed an effect of 50% or more. This is one part of the list.
quantity-kind: Percent Effect
Record the result as number plus unit.

Some solved entries appear below for comparison.
* CCN(CC)CC(=O)N1CCN(CCCc2ccncc2)CC1 | 2.413%
* CN(C)C(=O)c1ccc2c(c1)N(C)C(CC(=O)NCCOCCO)CO2 (centres undefined) | 24%
* CCN(C)c1ncnc2c1CCN(C(=O)COC)CC2.O=C(O)C(F)(F)F | -4.529%
* O=C(c1cc(Cl)c[nH]c1=O)N1C[C@@H]2CC[C@H](C1)N(Cc1ccccc1)C2 | 80.73%
* Cc1nn(C)c(C)c1CC(=O)NCc1cccnc1OC1CCCC1 | 8.742%
* CC(C)COCC(NC(=O)c1cc[nH]n1)c1ccco1 (centres undefined) | 4.731%

Value sought for every listed compound: Percent Effect.
1. CNc1cc2c(nn1)CCN(C(=O)c1ccc(-n3nccc3C)cc1)C2
2. O=C(c1ccccc1C(F)(F)F)N1C[C@@H](CN2CCOCC2)[C@@H](CO)C1
3. O=C(c1ccc(=O)[nH]c1)N1C[C@@H]2CC[C@H](C1)N(Cc1ccccc1)C2
4. CCC(C)(C)NC(=O)C[S+]([O-])Cc1csc(C2CCCC2)n1 (centres undefined)
5. CCC(CC)C(=O)N1CCN(Cc2cc(-c3ccncc3)nn2C)CC1
6. CCc1nc(CN2CCCN(C(=O)COC)CC2)cs1
7. CCN1CCn2c(C)cnc2C12CCN(C(=O)COC)CC2.O=C(O)C(F)(F)F.O=C(O)C(F)(F)F
8. CC(=O)N1CC2(CCCCN2Cc2ccc(Cl)cc2)Cc2ccccc21 (centres undefined)

Given back:
1. -6.131%
2. -0.09435%
3. 87.59%
4. -6.862%
5. 102.3%
6. 6.894%
7. 77.99%
8. 100.4%

Value sought for every listed compound: Percent Effect.
1. CC1N(CC2CC2)C(=O)COC12CCN(C(=O)c1ccncc1)CC2 (centres undefined)
2. CS(=O)(=O)N1CC2(CCCN2Cc2ccc(Cl)cc2)Cc2ccccc21 (centres undefined)
3. CCN(CC)CC(=O)N1CCN(CCc2ccncc2)CC1
4. COCC(=O)N1CCN(Cc2cc(-c3ccncc3)nn2C)CC1
5. CNc1cc2c(nn1)CCN(C(=O)c1ccccc1-n1cccn1)C2
6. O=C(c1c[nH]c(=O)c(Cl)c1)N1C[C@@H]2CC[C@H](C1)N(Cc1ccccc1)C2
7. CN(C)c1cc2c(nn1)CCN(C(=O)c1ccc(-n3cccn3)nc1)C2

Given back:
["-6.799%", "113.6%", "-8.418%", "92.41%", "88.38%", "-15.02%", "103.2%"]

Value sought for every listed compound: Percent Effect.
1. Cc1ccc(C(=O)NCCCN(C(C)C)S(C)(=O)=O)c(=O)[nH]1
2. CCC(=O)N1CCN(Cc2cc(-c3ccncc3)nn2C)CC1
3. Cn1cc(CN2CCCC3(CCCN3S(C)(=O)=O)C2)cn1.O=C(O)C(F)(F)F (centres undefined)
4. O=C1COC2(CCN(C(=O)c3cnccn3)CC2)CN1CC1CC1
5. CN(Cc1cnccn1)CC1CCOc2ccccc2C1 (centres undefined)

Given back:
["16.76%", "-2.828%", "1.436%", "-3.882%", "5.577%"]
